Where do these numbers come from? They come from patent US8569292B2.

This section lists IC50 readings for CYP2C19 (Homo sapiens, UniProt P33261).
Could you give me the number in µM? Just the number is fine.

Endpoint output: IC50 of Cc1cc(-c2ccc([C@H](C)N3CC[C@](CC(C)(C)O)(c4ccc(F)cc4)OC3=O)cc2)cc(C)n1 . Value? 9.6

Another: CNC(=O)c1ccc(-c2ccc([C@H](C)N3CC[C@](CC(C)(C)O)(c4ccccc4)OC3=O)cc2)nc1 33.8

Another: C[C@@H](c1ccc(-c2ccc(C3CC3)nn2)cc1)N1CC[C@](CC(C)(C)O)(c2ccccc2)OC1=O 24.2

Another: CCOc1ncc(-c2ccc([C@H](C)N3CC[C@](CC(C)(C)O)(c4ccccc4)OC3=O)cc2)cc1C 1.7

Another: C[C@@H](c1ccc(-c2cnc(C3CC3)nc2)cc1)N1CC[C@](CC(C)(C)O)(c2ccccc2)OC1=O 15.5

Another: Cc1cc(-c2ccc([C@H](C)N3CC[C@](CC(C)(C)O)(c4ccccc4)OC3=O)cc2)ccn1 19.5
